Data credit: patent US10941114B2

details: mouse, in vivo, iv, 10 mg/kg
Reported MRT is given for each of the following compounds.
A number alone suffices; assume h.

{"compound": "Cc1ccc(-c2cc(-c3ccc(Br)cc3)cc(/C=C/c3ccc(N(C)C)cc3)[n+]2C)cc1.[I-] [EL-8]", "reported value": 1.74}
{"compound": "CN(C)c1ccc(/C=C/c2cc(-c3ccc(Br)cc3)cc(-c3ccc(Br)cc3)[n+]2C2CCCCC2)cc1.[I-] [EL-5]", "reported value": 18.8}
{"compound": "Cc1ccc(/C=C/c2cc(-c3ccc(Br)cc3)cc(-c3ccc(Br)cc3)[n+]2C)cc1.[I-] [EL-11]", "reported value": 9.13}

Kindly review the next compound as well.
Prompt: Consider the compound CC(C)C[n+]1c(/C=C/c2ccc(N(C)C)cc2)cc(-c2ccc(Br)cc2)cc1-c1ccc(Br)cc1.[I-] [EL-1] and give its measured MRT.
Completion: 4.42

----------
Test system: Staphylococcus aureus
measurement protocol: Antibacterial activity assay (MIC, broth dilution)
Type: cell-based
Design: unit not given here
details: determined as in Example 1E (MIC)
measurement kind: Bacterial Killing S. aureus
// no unit, no text: just the number

{"compound": "CN(C)c1ccc(/C=C/c2cc(-c3cccc(F)c3)cc(-c3cccc(F)c3)[o+]2)cc1 [Compound 7jc46-1]", "test target": "Staphylococcus aureus", "reported value": 1}
{"compound": "CN1/C(=C/C=C/c2cc(-c3ccc(Cl)cc3)cc(-c3ccc(Cl)cc3)[o+]2)C(C)(C)c2ccccc21 [Compound 7jc42-1]", "test target": "Staphylococcus aureus", "reported value": 8}
{"compound": "CN(C)c1ccc(/C=C/C=C/c2cc(-c3ccc(F)cc3)cc(-c3ccc(F)cc3)[o+]2)cc1 [Compound 7jc47-2]", "test target": "Staphylococcus aureus", "reported value": 1}
{"compound": "CN(C)c1ccc(/C=C/c2cc(-c3ccc(F)cc3)cc(-c3ccc(F)cc3)[o+]2)cc1 [Compound 7jc47-1]", "test target": "Staphylococcus aureus", "reported value": 1}
{"compound": "CN(C)c1ccc(/C=C/c2cc(-c3ccc(Br)cc3)cc(-c3ccc(Br)cc3)[o+]2)cc1 [Compound 6jc48-1]", "test target": "Staphylococcus aureus", "reported value": 16}

Kindly review the next compound as well.
Prompt: Consider the compound CN1/C(=C/C=C/c2cc(-c3ccc(Br)cc3)cc(-c3ccc(Br)cc3)[o+]2)C(C)(C)c2ccccc21 [Compound 7jc42-2] and give its measured Bacterial Killing S. aureus.
Completion: 32

----------
Reported MIC is given for each of the following molecules.
System: Staphylococcus aureus
measurement protocol: Antibacterial activity assay (MIC, broth dilution)
Assay type: cell-based
details: Staphylococcus aureus; Table 16; CLSI M07-A10 dilution method; read-out: MIC S. aureus
A number alone suffices; assume µg/mL.

Examples from the recorded data:
{"structure smiles": "CN(CCC#N)c1ccc(/C=C/c2cc(-c3ccc(Br)cc3)cc(-c3ccc(Br)cc3)[n+]2C)cc1.[I-]", "MIC / µg/mL": 32}
{"structure smiles": "CCN(CC)c1ccc(/C=C/c2cc(-c3ccc(Cl)cc3)cc(-c3ccc(C)cc3)[n+]2C)cc1.[I-]", "MIC / µg/mL": 32}
{"structure smiles": "CCN(C)c1ccc(/C=C/c2cc(-c3ccc(Br)cc3)cc(-c3ccc(Br)cc3)[n+]2C)cc1.[I-]", "MIC / µg/mL": 16}
{"structure smiles": "COc1cc(-c2cc(/C=C/c3ccc(N(C)CCO)cc3)[n+](C)c(-c3ccc(Br)cc3)c2)cc(OC)c1Br.[I-]", "MIC / µg/mL": 4}
{"structure smiles": "CCN(CC)c1ccc(/C=C/c2cc(-c3ccc(Br)cc3)cc(-c3ccc(Br)cc3)[n+]2C)cc1.[I-]", "MIC / µg/mL": 1}
{"structure smiles": "CN(CCC#N)c1ccc(/C=C/c2cc(-c3ccc(Br)cc3Cl)cc(-c3ccc(Br)cc3)[n+]2C)cc1.[I-]", "MIC / µg/mL": 2}

Prompt: Consider the molecule CC[n+]1c(/C=C/c2ccc(N(C)CCO)cc2)cc(-c2ccc(Br)cc2)cc1-c1ccc(C)cc1 and give its measured MIC.
Completion: 2

Prompt: Another: Cc1ccc(-c2cc(-c3ccc(Br)cc3)cc(/C=C/c3ccc(N(C)CCO)cc3)[n+]2C)c(C)c1.[I-]
Completion: 0.5

Prompt: Another: CCN(CC)c1ccc(/C=C/c2cc(-c3ccc(Br)cc3Cl)cc(-c3ccc(Br)cc3)[n+]2C)cc1.[I-]
Completion: 0.5

Prompt: Another: CC[n+]1c(/C=C/c2ccc(N(C)C)cc2)cc(-c2ccc(Br)cc2)cc1-c1ccc(C)cc1.[I-]
Completion: 2
